biological target: HLA-A*0201 (Homo sapiens, UniProt P04439, D140Y/D185E/D98H/E176V/E277Q/G131W/G231S/I119V/I121R/I166T/I218V/L300P/L318F/N151K/N90K/P208A/P217A/Q86G/Q94H/R138H/R169H/T345S); assay type: binding
Property label: ELISA (Absorption-Pass/Fail Control)
// keep it numeric: no unit symbol after the value

seq_string="VLLFAIVSL [SEQ ID NO: 11]" property_label="ELISA (Absorption-Pass/Fail Control)" readout_number=0.47
seq_string="YIVEKANPV [SEQ ID NO: 26]" property_label="ELISA (Absorption-Pass/Fail Control)" readout_number=1.02
seq_string="LLFAIVSLV [SEQ ID NO: 12]" property_label="ELISA (Absorption-Pass/Fail Control)" readout_number=1.06
seq_string="NVPEWSYIV [SEQ ID NO: 25]" property_label="ELISA (Absorption-Pass/Fail Control)" readout_number=1.03
seq_string="AIVSLVKSD [SEQ ID NO: 14]" property_label="ELISA (Absorption-Pass/Fail Control)" readout_number=0.43
seq_string="SLVKSDQIC [SEQ ID NO: 16]" property_label="ELISA (Absorption-Pass/Fail Control)" readout_number=0.09
seq_string="AQDILEKKH [SEQ ID NO: 21]" property_label="ELISA (Absorption-Pass/Fail Control)" readout_number=0.15
seq_string="HANNSTEQV [SEQ ID NO: 17]" property_label="ELISA (Absorption-Pass/Fail Control)" readout_number=0.43
seq_string="KLCDLDGVK [SEQ ID NO: 22]" property_label="ELISA (Absorption-Pass/Fail Control)" readout_number=0.20
seq_string="LILRDCSVA [SEQ ID NO: 23]" property_label="ELISA (Absorption-Pass/Fail Control)" readout_number=0.57

[ask] Recorded ELISA (Absorption-Pass/Fail Control) for MEKNVTVTH [SEQ ID NO: 20] , please?
[reply] −0.02

[ask] Fill blank: measured ELISA (Absorption-Pass/Fail Control) of the sequence PMCDEFINV [SEQ ID NO: 24] is ____.
[reply] 0.98

[ask] Would you kindly share the measured ELISA (Absorption-Pass/Fail Control) for TIMEKNVTV [SEQ ID NO: 18] ?
[reply] 0.99

[ask] Please look up its ELISA (Absorption-Pass/Fail Control): FAIVSLVKS [SEQ ID NO: 13]
[reply] 0.07

[ask] Suppose we examine the sequence IVSLVKSDQ [SEQ ID NO: 15] ; what ELISA (Absorption-Pass/Fail Control) value has been reported?
[reply] 0.04

[ask] State the recorded ELISA (Absorption-Pass/Fail Control) for this entry: IMEKNVTVT [SEQ ID NO: 19]
[reply] 0.02
